Where do these numbers come from? They come from the supplement of paper PMC10567573.

B1: CPXM2 (parent)
chain: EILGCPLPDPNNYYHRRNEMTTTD

variants of: B1; assay: protein stability index of a GFP-peptide fusion (GPS, HEK-293T) (PSI 1-6); higher = more stable; conditions: c terminus: a fixed tail appended;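 further: lentivirally expressed fusions sorted by FACS into six bins by GFP to DsRed ratio, PSI derived from sequencing read proportions per bin multiplied by bin number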
This listing pairs variants with measured protein stability index.

// below: answered variants
P8A 2.9
N12W 2.79
H15V 3.1
H15G 3.88
Y14R 3.92
H15D 4.42

Param item = N12Y ; retrieve measured protein stability index.
3.35

Param item = N12F ; retrieve measured protein stability index.
2.5

Param item = Y13S ; retrieve measured protein stability index.
3.86

Param item = T21S ; retrieve measured protein stability index.
3.52

Param item = T23C ; retrieve measured protein stability index.
3.8

Param item = L3C ; retrieve measured protein stability index.
4.07

Param item = E19H ; retrieve measured protein stability index.
3.1

Param item = Y14L ; retrieve measured protein stability index.
3.68

Param item = P10H ; retrieve measured protein stability index.
3.66

Param item = D9H ; retrieve measured protein stability index.
2.39
